Assay: Pharmacokinetic study in healthy adults of single vs. multiple oral doses of colchicine tablets (Example 1)
Format: in vivo, human
Details: human, plasma, po, 0.6 mg, single oral dose colchicine 0.6 mg, healthy adults N=13, plasma, median; read-out: AUC0-inf, MEDIAN
REPORTED_ENDPOINT: AUC(0-inf) (ng·h/mL)

>>> result("COc1cc2c(c(OC)c1OC)-c1ccc(OC)c(=O)cc1[C@@H](NC(C)=O)CC2")
11.5

----------
Test: Pharmacokinetic study in healthy adults of single vs. multiple oral doses of colchicine tablets (Example 1)
Assay type: in vivo, human
Details: human, plasma, po, 0.6 mg, multiple (b.i.d.) oral doses colchicine 0.6 mg for 10 days, Day 25, healthy adults N=13, plasma, median; read-out: AUC0-inf, MEDIAN
REPORTED_ENDPOINT: AUC(0-inf) (ng·h/mL)

>>> result("COc1cc2c(c(OC)c1OC)-c1ccc(OC)c(=O)cc1[C@@H](NC(C)=O)CC2")
54.1

----------
Assay: Pharmacokinetic study in healthy adults of single vs. multiple oral doses of colchicine tablets (Example 1)
Assay type: in vivo, human
Settings: human, plasma, oral, 0.6 mg, colchicine 0.6-mg single dose, Day 1, N=13; Vd = CL/Ke, calculated from mean values; read-out: Vd/F, Mean (% CV)
REPORTED_ENDPOINT: Vd/F (L)

>>> result("COc1cc2c(c(OC)c1OC)-c1ccc(OC)c(=O)cc1[C@@H](NC(C)=O)CC2")
341

----------
Assay: Pharmacokinetic study in healthy adults of single vs. multiple oral doses of colchicine tablets (Example 1);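 further: Single-dose and multiple-dose periods given to the same subjects, with a 14-day washout between the two periods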
Type: in vivo, human
Conditions: human, plasma, po, 0.6 mg, single oral dose colchicine 0.6 mg, healthy adults N=13, plasma, median; read-out: AUC0-t, MEDIAN
REPORTED_ENDPOINT: AUC(0-t) (ng·h/mL)

>>> result("COc1cc2c(c(OC)c1OC)-c1ccc(OC)c(=O)cc1[C@@H](NC(C)=O)CC2 [Colchicine]")
10.6

Recorded values, source patent US20110046227A1.
